Origin of values: PubChem BioAssay (NCATS)

- Tested on: CRL-7250
- Experiment notes: qHTS assay to identify novel small-molecules to repurpose for Merkel cell carcinoma treatment (AID 1296009); note: nearly all actives have a fitted effect of over 60% in size
- Assay context: MCC and control cell lines, CellTiter-Glo viability, 72 h; series mostly up to 92 µM
Records with an inconclusive call do not appear. The source made the active and inactive calls. Calls come from the whole dose curve; as a rule, active = well fitted inhibition curve with a large enough effect; inconclusive = small, poorly fitted or top-dose-only effect; inactive = flat fitted curve, though single readings scatter.
Endpoint: outcome

{"columns": ["Compound", "Endpoint", "Meas value"],
 "data": [
  ["C#Cc1cnc2[nH]c(=O)n(C(CC)CC)c2n1", "outcome", "inactive"],
  ["O=C(CS(=O)Cc1ccco1)NCC=CCOc1cc(CN2CCCCC2)ccn1 (stereo not given)", "outcome", "inactive"],
  ["CC(=O)OC(C)(C)/C=C/C(=O)[C@](C)(O)C1[C@H](O)C[C@@]2(C)[C@@H]3CC=C4[C@@H](C[C@H](O[C@@H]5O[C@H](CO)[C@@H](O)[C@H](O)[C@H]5O)C(=O)C4(C)C)[C@]3(C)C(=O)C[C@]12C (stereo not given in full)", "outcome", "inactive"],
  ["Cc1c(C)c(NCC(=O)N(C)C2CCN(Cc3ccc(C(N)=O)cc3)CC2)c(C)c(C)c1N", "outcome", "inactive"],
  ["C=C1CC[C@H]2[C@@H](/C=C(\\C)C(=O)[C@@]3(OC(C)=O)C[C@H](C)[C@H](OC(C)=O)[C@@H]3[C@H]1OC(C)=O)C2(C)C", "outcome", "inactive"],
  ["C[C@@H]1O[C@@H](O[C@H]2[C@H](O[C@H]3CC[C@@]4(C)C(CC[C@]5(C)C4CC=C4C6CC(C)(C)CC[C@]6(C(=O)O[C@@H]6O[C@H](CO[C@@H]7O[C@H](CO)[C@@H](O[C@@H]8O[C@@H](C)[C@H](O)[C@@H](O)[C@H]8O)[C@H](O)[C@H]7O)[C@@H](O)[C@H](O)[C@H]6O)CC[C@]45C)[C@]3(C)CO)OC[C@H](O)[C@@H]2O)[C@H](O)[C@H](O)[C@H]1O (stereo not given in full)", "outcome", "inactive [at 9.27 µM]"],
  ["OC[C@H]1O[C@@H](Oc2cc(O)cc(C=Cc3ccc(O)cc3)c2)[C@H](O)[C@@H](O)[C@H]1O", "outcome", "inactive"],
  ["Cc1ccc(Nc2cc(-c3cccc(N4C(=O)c5ccccc5C4=O)c3)ncn2)cc1NS(C)(=O)=O", "outcome", "inactive"],
  ["CC1CC(=O)C2C(O)(C1)CC(O)C13OC1c1c(O)cccc1C(=O)C23O (stereo not given)", "outcome", "inactive"],
  ["COc1ccc(/C=C/C(=O)O[C@@H]2[C@@H](OC(C)=O)[C@@H](OC(C)=O)[C@H](O[C@H]3[C@@H]4C=CO[C@@H](O[C@@H]5O[C@H](CO)[C@@H](O)[C@H](O)[C@H]5O)[C@@H]4[C@@]4(CO)O[C@@H]34)O[C@H]2C)cc1", "outcome", "inactive"],
  ["CCC(C)/C=C(C)/C=C/C1=CC2=CC(=O)C(C)(O)C(OC(C)=O)C2CO1 (stereo not given)", "outcome", "inactive"],
  ["CC(=O)N[C@@H]1[C@H](O[C@@H]2c3ccc(c(Cl)c3)Oc3cc4cc(c3O[C@H]3O[C@H](CO)[C@@H](O)[C@H](O)[C@H]3NC(=O)CCCCCCCC(C)C)Oc3ccc(cc3Cl)C[C@H]3NC(=O)[C@H](N)c5ccc(O)c(c5)Oc5cc(O)cc(c5)[C@H](NC3=O)C(=O)N[C@H]4C(=O)N[C@H]3C(=O)N[C@@H]2C(=O)N[C@@H](C(=O)O)c2cc(O)cc(O[C@H]4O[C@H](CO)[C@@H](O)[C@H](O)[C@H]4O)c2-c2cc3ccc2O)O[C@H](CO)[C@@H](O)[C@@H]1O", "outcome", "inactive"],
  ["CC(=O)OC1CC(=O)C2(C)C3CC4=C(OC(C)CC4=O)OC3(C)CCC2C1(C)C (stereo not given)", "outcome", "inactive"],
  ["CC1(C)CCC[C@@]2(C)[C@H]1[C@H](O)C=C1COC(=O)[C@@]12O", "outcome", "inactive"],
  ["Cc1ccccc1C(C(=O)NC1CCCCC1)N(C(=O)CNc1ccc(C#N)cc1)c1cccc(F)c1 (stereo not given)", "outcome", "inactive"],
  ["CC(C)[C@](O)(c1ccc2cc(OC(F)F)c(OC(F)F)cc2c1)c1cn[nH]n1", "outcome", "inactive"],
  ["COc1c(C(C)C)c(O)c(O)c2c1C(OC)[C@H]1OC(=O)[C@@]23CCCC(C)(C)[C@H]13 (stereo not given in full)", "outcome", "inactive"],
  ["CC(/C=C/C1(O)C(C)(C)CC(O)CC1(C)O)OC1OC(CO)C(O)C(O)C1O (stereo not given)", "outcome", "inactive"],
  ["C[C@@H]1O[C@@H](O[C@H]2[C@H](OC(=O)[C@]34CCC(C)(C)C[C@H]3C3=CCC5[C@@]6(C)C[C@@H](O)[C@@H](O[C@@H]7O[C@H](CO)[C@@H](O)[C@H](O)[C@H]7O)[C@@](C)(CO)C6[C@H](O)C[C@@]5(C)[C@]3(C)CC4)OC[C@H](O)[C@@H]2O)[C@H](O)[C@H](O[C@@H]2OC[C@](O)(CO)[C@H]2O)[C@H]1O[C@@H]1OC[C@@H](O)[C@H](O[C@H]2O[C@H](C)[C@@H](O)[C@H](O)[C@@H]2O)[C@H]1O (stereo not given in full)", "outcome", "inactive [at 9.27 µM]"],
  ["C=C(C(=O)OC)C1C(O)CC2(C)C(=O)CCC(O)(CO)C2C1O (stereo not given)", "outcome", "inactive"],
  ["CS(=O)(=O)c1ccc(Oc2cc(F)cc(C#N)c2)c2c1[C@H](O)C(F)(F)C2", "outcome", "inactive"],
  ["CC(O)C/C=C/C=C/C(=O)OC1C=C2COC(=O)C2(O)C2(C)CCCC(C)(C)C12 (stereo not given)", "outcome", "inactive"],
  ["CC(C)CC(=O)n1cc(C(N)=O)c(=O)cc1C(O)c1ccccc1 (stereo not given)", "outcome", "inactive"],
  ["C=C1C(O)CC2C(C(=O)O)=COC(O[C@@H]3O[C@H](COC(=O)c4ccc(O)cc4)[C@@H](O)[C@H](O)[C@H]3O)C12 (stereo not given in full)", "outcome", "inactive"],
  ["C[C@]12CC[C@@H]3c4ccc(OC(=O)c5ccccc5)cc4CC[C@H]3[C@@H]1CC[C@@H]2O", "outcome", "inactive"]
]}
